meta.source: patent US20230235054A1

tgt: T1, human Nectin-4 on cells (human, UniProt Q96NY8 32-510)
T1 sequence (looked up): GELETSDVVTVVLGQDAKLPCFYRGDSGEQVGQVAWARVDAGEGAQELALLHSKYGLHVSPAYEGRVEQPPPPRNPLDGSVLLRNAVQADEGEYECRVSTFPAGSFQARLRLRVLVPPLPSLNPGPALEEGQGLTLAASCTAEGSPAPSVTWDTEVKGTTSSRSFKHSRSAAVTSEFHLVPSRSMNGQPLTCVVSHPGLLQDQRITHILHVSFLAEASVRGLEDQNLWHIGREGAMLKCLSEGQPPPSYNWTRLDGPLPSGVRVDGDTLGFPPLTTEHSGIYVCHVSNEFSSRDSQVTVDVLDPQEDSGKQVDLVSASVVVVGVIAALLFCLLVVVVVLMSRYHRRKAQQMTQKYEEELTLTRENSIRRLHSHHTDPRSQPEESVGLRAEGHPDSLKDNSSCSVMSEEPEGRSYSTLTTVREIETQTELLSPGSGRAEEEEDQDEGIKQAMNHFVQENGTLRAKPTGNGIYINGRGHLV
method: cell-based or functional assay
Could you please report measured Ratio (pH 7.4/6.0) of cell killing EC50 for the items listed next?
# respond with the number and nothing more

Look up Ratio (pH 7.4/6.0) of cell killing EC50: BAP-143-00-02 (antibody, V domains shown, Used as a conjugate with a linker payload (CAB ADC)) VH: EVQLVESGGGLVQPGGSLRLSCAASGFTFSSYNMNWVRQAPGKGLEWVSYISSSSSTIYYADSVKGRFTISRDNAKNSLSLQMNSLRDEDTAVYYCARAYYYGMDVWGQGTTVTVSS VL: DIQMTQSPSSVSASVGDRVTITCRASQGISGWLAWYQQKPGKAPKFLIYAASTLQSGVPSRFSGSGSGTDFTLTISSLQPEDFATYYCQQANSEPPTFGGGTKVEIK
1.7

Now this one: BAP-143-00-03 (antibody, V domains shown, Used as a conjugate with a linker payload (CAB ADC)) VH: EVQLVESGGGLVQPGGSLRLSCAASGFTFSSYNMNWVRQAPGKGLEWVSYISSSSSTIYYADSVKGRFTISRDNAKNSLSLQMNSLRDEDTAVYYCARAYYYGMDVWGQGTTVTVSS VL: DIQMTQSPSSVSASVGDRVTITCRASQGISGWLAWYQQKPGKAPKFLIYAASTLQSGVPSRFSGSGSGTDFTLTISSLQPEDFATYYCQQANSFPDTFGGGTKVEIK
2.6

Now this one: BAP-143-00-05 (antibody, V domains shown, Used as a conjugate with a linker payload (CAB ADC)) VH: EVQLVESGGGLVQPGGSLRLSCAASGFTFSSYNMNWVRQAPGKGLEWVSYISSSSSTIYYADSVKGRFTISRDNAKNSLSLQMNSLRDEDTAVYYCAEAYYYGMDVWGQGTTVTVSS VL: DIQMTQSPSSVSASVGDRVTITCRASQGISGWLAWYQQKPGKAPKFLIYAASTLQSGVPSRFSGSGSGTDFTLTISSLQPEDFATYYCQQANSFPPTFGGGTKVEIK
2
